# Target entity: T1, RSV prefusion F (preF), subtype B (respiratory syncytial virus subtype B)
# T1 construct: also called Prefusion subtype B
# Protocol details: BLI, IgG
The binders listed here are annotated with their pKd.
Answer as the number alone; pKd is minus log10 of concentration in mol/L.

Input line: Identify measured pKd associated with ADI-24805 (antibody, V domains shown, full-length IgG; also called Ab 370) VH: QVQLVQSGGGLVKPGGSLRLSCAASGFTFSSYSMNWVRQAPGKGLEWVSSISSSSSYIYYADSVKGRFTISRDNAKNSLYLQMNSLRAEDTAVYYCAREGYSSSSGYYYYMDVWGKGTTVTVSS VL: QSVLTQPPSVSGAPGQRVTISCTGSSSNIGAGYDVHWYQQLPGTAPKLLIYGNSNRPSGVPDRFSGSKSGTSASLAITGLQAEDEADYYCQSYDSSLSGSVFGTGTKVTVL
Output line: 8.31

Input line: Read off the recorded pKd for ADI-19510 (antibody, V domains shown, full-length IgG; also called Ab 210) VH: EVQLVESGGGLVKPGGSLRLSCAASGFSLSSYYMNWVRQAPGKGLEWVSSISSSSTYINYADSVKGRFTISRDNAKNSLYLQMNSLRAEDTAVYYCARGGSITIFGVVFDSWGQGTLVTVSS VL: SYELTQPPSVSGAPGQRVTISCTGTSSNIGAGYDVHWYQQLPGTAPKLLIYVNSNRPSGVPDRFSGSKSGTSASLAITGLQAEDEADYYCQSYDSSLSGGVFGTGTKVTVL
Output line: 9.62

Input line: Look up and report measured pKd for this entry: ADI-14340 (antibody, V domains shown, full-length IgG; also called Ab 8) VH: EVQLVESGGGLVKPGGSLRLSCAASGFTLSSYTMNWVRQAPGRGLEWVSSIYSTSSYIYYADSVKGRFTISRDNAKNSLYLQMNSLRAEDTAVYYCARDSQAVTGTDLYFDSWGQGTLVTVSS VL: QPGLTQPPSVSVAPGKTARITCGGNNIGRKNVHWYQQKPGQAPILVIYYDSDRPSGIPERFSGSNSGNTATLTISRVEDGDEADYYCQVWDSSNDHVIFGGGTQLTVL
Output line: 7.01

Input line: Entry ADI-25557 (antibody, V domains shown, full-length IgG) VH: EVQLLESGGGLVKPGGSLRLSCAASGFTFSSYSMNWVRQAPGKGLEWVSSISSSSSYIYYADSVKGRFTISRDNAKNSLYLQMNSLRAEDTAVYYCARGYGSGSYLDYFDYWGQGTLVTVSS VL: QPGLTQPPSVSGAPGQRVTISCTGSSSNIGAGYDVHWYQQLPGTAPKLLIYGNSNRPSGVPDRFSGSKSGTSASLAITGLQAEDEADYYCQSYDSSLSGFYVFGTGTKLTVL needs its pKd filled in; supply it.
Output line: 7.48

Reference source: patent US20260258115A1
